# Tested on: maize
# assay: Post-emergence test (Example B), crop plant tolerance, maize
# Type: in vivo
# conditions: rated after three weeks

compound_structure: CN1CCCN(Cc2c(Cl)ccc(C(=O)C3=C(Sc4ccccc4)CCCC3=O)c2Cl)C1=O
tolerance by crop plants: tolerated well
--
compound_structure: O=C1CCCC(Sc2ccccc2)=C1C(=O)c1ccc(Cl)c(Cn2nc(C3CC3)n(C3CC3)c2=O)c1Cl
tolerance by crop plants: tolerated well
--
compound_structure: CN1CCN(Cc2c(Cl)ccc(C(=O)C3=C(Sc4ccccc4)CCCC3=O)c2Cl)C1=O
tolerance by crop plants: tolerated well

---

# System: wheat
# assay: Post-emergence test (Example B), crop plant tolerance, wheat
# Assay type: in vivo
# conditions: rated after three weeks
measured_attribute: tolerance by crop plants

compound_structure: CSC1=C(C(=O)c2ccc(C(F)(F)F)cc2Cn2nc(SC)n(C)c2=O)C(=O)CCC1
tolerance by crop plants: tolerated well
//
compound_structure: CN1CCN(Cc2c(Cl)ccc(C(=O)C3=C(Sc4ccccc4)CCCC3=O)c2Cl)C1=O
tolerance by crop plants: tolerated well
//
compound_structure: COc1nn(Cc2cc(C(F)(F)F)ccc2C(=O)C2=C(Sc3ccccc3)CCCC2=O)c(=O)n1C
tolerance by crop plants: tolerated well
//
compound_structure: O=C1CCCC(Sc2ccccc2)=C1C(=O)c1ccc(Cl)c(Cn2nc(C3CC3)n(C3CC3)c2=O)c1Cl
tolerance by crop plants: tolerated well

get_value(item= COc1nn(Cc2cc(C(F)(F)F)ccc2C(=O)C2=C(SC)CCCC2=O)c(=O)n1C , readout=tolerance by crop plants) returns tolerated well

Entry under test: CSc1nn(Cc2cc(C(F)(F)F)ccc2C(=O)C2=C(Sc3ccccc3)CCCC2=O)c(=O)n1C . Its tolerance by crop plants was tolerated well

Entry under test: CN1CCCN(Cc2c(Cl)ccc(C(=O)C3=C(Sc4ccccc4)CCCC3=O)c2Cl)C1=O . Its tolerance by crop plants was tolerated well
